Measured flow cytometry signal at 0.1µg Ab/Sample of individual entries
- tgt: T1, human CLDN6, endogenously expressed on cancer cell lines (human, UniProt P56747 1-220)
- T1 construct: also called Endogenous CLDN6+; CLDN6 on ARK2, OVCA429, UMUC4 cells
- T1 sequence: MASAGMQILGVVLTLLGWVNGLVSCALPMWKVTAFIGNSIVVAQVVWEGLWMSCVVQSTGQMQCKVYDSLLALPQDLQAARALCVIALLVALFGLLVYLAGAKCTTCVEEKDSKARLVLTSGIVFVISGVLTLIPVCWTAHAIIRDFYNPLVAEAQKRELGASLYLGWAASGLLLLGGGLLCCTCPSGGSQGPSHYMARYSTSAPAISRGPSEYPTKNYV
- protocol.details: flow cytometry on UMUC4 cells (Positive Cell Line), anti-human IgG Fc secondary antibody
Please reply with the number alone, leaving off any unit.

Query :: Please look up its flow cytometry signal at 0.1µg Ab/Sample: AB3-7 conjugated to CL2A-SN38 (D4 technology) (antibody, V domains shown, CL2A-SN38 conjugated to the antibody (D4); sites not stated, Antibody-drug conjugate of humanized AB3-7; also called CLDN6 ADC) VH: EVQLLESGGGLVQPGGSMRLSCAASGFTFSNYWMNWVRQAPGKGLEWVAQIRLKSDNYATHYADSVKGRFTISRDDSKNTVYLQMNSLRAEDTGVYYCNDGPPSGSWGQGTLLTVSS VL: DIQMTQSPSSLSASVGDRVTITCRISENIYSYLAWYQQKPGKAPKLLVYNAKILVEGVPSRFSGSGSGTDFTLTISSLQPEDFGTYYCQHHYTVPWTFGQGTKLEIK
Result :: 9140

Query :: Tell me the measured flow cytometry signal at 0.1µg Ab/Sample of AB3-7 conjugated to MC-VC-PAB-MMAE (D4 technology) (antibody, V domains shown, MC-VC-PAB-MMAE conjugated to the antibody, substantially 4 drugs per antibody (D4); sites not stated, Antibody-drug conjugate of humanized AB3-7; also called CLDN6 ADC; ADC-23 (D4 technology)) VH: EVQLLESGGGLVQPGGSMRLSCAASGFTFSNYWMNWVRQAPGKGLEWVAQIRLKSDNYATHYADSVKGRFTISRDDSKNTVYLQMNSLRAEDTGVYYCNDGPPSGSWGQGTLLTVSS VL: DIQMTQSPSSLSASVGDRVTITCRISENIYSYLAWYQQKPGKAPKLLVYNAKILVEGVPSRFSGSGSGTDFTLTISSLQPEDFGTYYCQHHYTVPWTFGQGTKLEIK , please.
Result :: 9450

Query :: Recorded flow cytometry signal at 0.1µg Ab/Sample for AB3-7 conjugated to MC-VC-PAB-DXD (antibody, V domains shown, MC-VC-PAB-DXD conjugated to the antibody; sites not stated, Antibody-drug conjugate of humanized AB3-7; also called CLDN6 ADC) VH: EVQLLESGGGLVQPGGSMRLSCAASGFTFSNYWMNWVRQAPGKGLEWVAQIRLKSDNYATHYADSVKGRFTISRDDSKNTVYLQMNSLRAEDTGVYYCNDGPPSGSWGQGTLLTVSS VL: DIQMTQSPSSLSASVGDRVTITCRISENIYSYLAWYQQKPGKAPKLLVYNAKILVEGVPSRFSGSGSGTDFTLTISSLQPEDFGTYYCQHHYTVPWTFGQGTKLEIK , please?
Result :: 10800
